Test system: DeltatarO mutant
method.description: S. aureus survival, RN4220 and DeltatarO strains – OD600, teichoic acid synthesis inhibitors, primary screen (AID 463173)
condition.info: S. aureus RN4220 wild type/DeltatarO growth, OD600, 18 h, hits give low values, screened at 18.75 µg/mL (by protocol)
Among all 52,000 compounds or so, about 4,300 (8.3%) were called active. The entries come from a sample that favours actives as a whole.
measured.parameter: survival (%)
Response body: numeric value in %, unit text excluded.

Q: Look at this compound and give its reported survival. "Cc1cccc(CC(=O)Nc2cccc(-c3nc4cccnc4s3)c2)c1"
Result: 93

Q: Look at this compound and give its reported survival. CC(C)Oc1ccc(NC(=O)C2COc3ccccc3O2)cc1 (stereo not given)
Result: 103

Q: Look at this compound and give its reported survival. "CCOc1ccc(CCNC(=O)CCCn2c(=O)c3cccn3c3ccccc32)cc1"
Result: 72

Q: Look at this compound and give its reported survival. "Cc1cccc(C(=O)Nc2cc(-c3nc4cccnc4s3)ccc2C)c1"
Result: 45

Q: Look at this compound and give its reported survival. "Cc1cccc(C(=O)Nc2ccc(C(=O)OCc3cc(=O)n4nc(CC(C)C)sc4n3)cc2)c1"
Result: 99

Q: Look at this compound and give its reported survival. "COC(=O)c1ccc2c(=O)n(CCCCCC(=O)NCCc3ccccc3)c(=O)[nH]c2c1"
Result: 79

Q: Look at this compound and give its reported survival. "COc1ccc(S(=O)(=O)N2CCCN(CC(=O)Nc3ccc(OC)cc3OC)CC2)cc1"
Result: 72

Q: Look at this compound and give its reported survival. "COc1ccc(OC)c(NC(=O)Cc2coc3ccc(C(C)C)cc23)c1"
Result: 73

Q: Look at this compound and give its reported survival. "COc1ccc(-c2cn3nc(SCC(=O)Nc4ccc(C)c(Cl)c4)ccc3n2)cc1"
Result: 94

Q: Look at this compound and give its reported survival. "Cc1ccc(C(=O)Nc2cccc(-c3nc4cccnc4s3)c2C)cc1"
Result: 111

* * *

Tested on: DeltatarO mutant
method.description: S. aureus survival, RN4220 and DeltatarO strains – OD600, teichoic acid synthesis inhibitors, primary screen (AID 463173)
condition.info: S. aureus RN4220 wild type/DeltatarO growth, OD600, 18 h, hits give low values, screened at 18.75 µg/mL (by protocol)
In all, about 52,000 compounds went through this assay and about 4,300 (8.3%) were called active. For the sample, actives were picked, then their nearest neighbours and some compounds at random.
measured.parameter: survival (%)
Response body: numeric value in %, unit text excluded.

Q: Please provide the recorded survival for CCN1CCN(C(c2cccc(F)c2)c2c(O)cc(C)n(CCOC)c2=O)CC1 (stereo not given) , tested on DeltatarO mutant.
Result: 73

Q: Please provide the recorded survival for "Cc1c(C(=O)N2CCCCC2)c(S(=O)(=O)NCc2ccc(N(C)C)cc2)c(C)n1C" , tested on DeltatarO mutant.
Result: 120

Q: Please provide the recorded survival for "O=C(NCc1ccccc1)c1ccc2c(c1)CCN2S(=O)(=O)c1ccccc1" , tested on DeltatarO mutant.
Result: 36

Q: Please provide the recorded survival for "COc1ccc(C)cc1NS(=O)(=O)c1ccc2oc(=O)c3ncn(C)c3c2c1" , tested on DeltatarO mutant.
Result: 77

Q: Please provide the recorded survival for CCC(C(=O)N1CCN(c2cc(C)ccc2C)CC1)n1nc(C)n2c(cc3occc32)c1=O (stereo not given) , tested on DeltatarO mutant.
Result: 43

Q: Please provide the recorded survival for "COC(=O)Cn1c(SCCOc2ccccc2Cl)nc2ccccc21" , tested on DeltatarO mutant.
Result: 42

Q: Please provide the recorded survival for "Cc1nn(-c2ccccc2)c(OC(=O)c2ccccc2)c1S(=O)(=O)c1ccccc1" , tested on DeltatarO mutant.
Result: 81

Q: Please provide the recorded survival for CC(=O)c1ccccc1OCC(O)Cn1c(CO)nc2ccccc21 (stereo not given) , tested on DeltatarO mutant.
Result: 59

Q: Please provide the recorded survival for "COC(=O)CNC(=O)C1CCN(c2nc(C)cc(-c3ccccc3)n2)CC1" , tested on DeltatarO mutant.
Result: 96

Q: Please provide the recorded survival for "CC1CCN(S(=O)(=O)c2csc(C(N)=O)c2)CC1" , tested on DeltatarO mutant.
Result: 85
